target: Thymic stromal lymphopoietin (Homo sapiens); assay: Inhibition of human N-terminal flag-tagged TSLP/human C-terminal octa histidine-tagged TSLPR interaction at 0.3 mM after 16 hrs by ELISA based spectrophotometric analysis
Where a SMILES comes first, the peptide text is derived from it.
The threshold is inclusive: inhibition of exactly 20% counts as Met; values below receive Not met.

compound: C[C@H](NC(=O)[C@H](CO)NC(=O)[C@H](C)NC(=O)[C@H](CCCNC(=N)N)NC(=O)[C@H](CCC(N)=O)NC(=O)[C@@H](N)CCCNC(=N)N)C(=O)O (H-RQRASA-OH)
measuredTarget: Thymic stromal lymphopoietin (Homo sapiens)
discreteLabel: Not met
--
compound: CC(C)C[C@H](NC(=O)CNC(=O)[C@H](Cc1ccc(O)cc1)NC(=O)[C@H](Cc1cnc[nH]1)NC(=O)[C@H](C)NC(=O)[C@H](C)NC(=O)[C@@H](N)CCCNC(=N)N)C(=O)N[C@@H](CCC(=O)O)C(=O)O (H-RAAHYGLE-OH)
measuredTarget: Thymic stromal lymphopoietin (Homo sapiens)
discreteLabel: Not met
--
compound: C[C@H](N)C(=O)N[C@@H](CCCNC(=N)N)C(=O)N[C@@H](CCC(N)=O)C(=O)N[C@@H](CCCNC(=N)N)C(=O)N[C@@H](C)C(=O)N[C@@H](CO)C(=O)N[C@@H](C)C(=O)N[C@@H](Cc1c[nH]c2ccccc12)C(=O)O (H-ARQRASAW-OH)
measuredTarget: Thymic stromal lymphopoietin (Homo sapiens)
discreteLabel: Met
--
compound: CC(C)C[C@H](NC(=O)CNC(=O)[C@H](Cc1ccc(O)cc1)NC(=O)[C@H](Cc1cnc[nH]1)NC(=O)[C@H](C)NC(=O)[C@H](C)N)C(=O)N[C@@H](CCC(=O)O)C(=O)O (H-AAHYGLE-OH)
measuredTarget: Thymic stromal lymphopoietin (Homo sapiens)
discreteLabel: Not met
--
compound: CC(=O)N[C@@H](C)C(=O)N[C@@H](CCCNC(=N)N)C(=O)N[C@@H](CCC(N)=O)C(=O)N[C@@H](CCCNC(=N)N)C(=O)N[C@@H](C)C(=O)N[C@@H](CO)C(=O)N[C@@H](C)C(=O)O (Ac-ARQRASA-OH)
measuredTarget: Thymic stromal lymphopoietin (Homo sapiens)
discreteLabel: Met
--
compound: CC(C)C[C@H](NC(=O)CNC(=O)[C@H](Cc1ccc(O)cc1)NC(=O)[C@H](Cc1cnc[nH]1)NC(=O)[C@H](C)NC(=O)[C@H](C)N)C(=O)N[C@@H](CCC(=O)O)C(=O)N[C@@H](C)C(=O)O (H-AAHYGLEA-OH)
measuredTarget: Thymic stromal lymphopoietin (Homo sapiens)
discreteLabel: Met
--
compound: C[C@H](NC(=O)[C@H](CO)NC(=O)[C@H](C)NC(=O)[C@H](CCCNC(=N)N)NC(=O)[C@H](CCC(N)=O)NC(=O)[C@@H](N)CCCNC(=N)N)C(=O)N[C@@H](Cc1c[nH]c2ccccc12)C(=O)O (H-RQRASAW-OH)
measuredTarget: Thymic stromal lymphopoietin (Homo sapiens)
discreteLabel: Met

Kindly review the next compound as well.
Ask | Threshold query (inhibition >= 20%) on CC(=O)N[C@@H](CCCNC(=N)N)C(=O)N[C@@H](CCC(N)=O)C(=O)N[C@@H](CCCNC(=N)N)C(=O)N[C@@H](C)C(=O)N[C@@H](CO)C(=O)N[C@@H](C)C(=O)O (Ac-RQRASA-OH)
Reply | Met
